- target_system: PDGFRB (Homo sapiens)
- Construct: Kinases are expressed as either kinase domains or full length constructs; made in house
- Sequence (P09619 33-1106, species assumed): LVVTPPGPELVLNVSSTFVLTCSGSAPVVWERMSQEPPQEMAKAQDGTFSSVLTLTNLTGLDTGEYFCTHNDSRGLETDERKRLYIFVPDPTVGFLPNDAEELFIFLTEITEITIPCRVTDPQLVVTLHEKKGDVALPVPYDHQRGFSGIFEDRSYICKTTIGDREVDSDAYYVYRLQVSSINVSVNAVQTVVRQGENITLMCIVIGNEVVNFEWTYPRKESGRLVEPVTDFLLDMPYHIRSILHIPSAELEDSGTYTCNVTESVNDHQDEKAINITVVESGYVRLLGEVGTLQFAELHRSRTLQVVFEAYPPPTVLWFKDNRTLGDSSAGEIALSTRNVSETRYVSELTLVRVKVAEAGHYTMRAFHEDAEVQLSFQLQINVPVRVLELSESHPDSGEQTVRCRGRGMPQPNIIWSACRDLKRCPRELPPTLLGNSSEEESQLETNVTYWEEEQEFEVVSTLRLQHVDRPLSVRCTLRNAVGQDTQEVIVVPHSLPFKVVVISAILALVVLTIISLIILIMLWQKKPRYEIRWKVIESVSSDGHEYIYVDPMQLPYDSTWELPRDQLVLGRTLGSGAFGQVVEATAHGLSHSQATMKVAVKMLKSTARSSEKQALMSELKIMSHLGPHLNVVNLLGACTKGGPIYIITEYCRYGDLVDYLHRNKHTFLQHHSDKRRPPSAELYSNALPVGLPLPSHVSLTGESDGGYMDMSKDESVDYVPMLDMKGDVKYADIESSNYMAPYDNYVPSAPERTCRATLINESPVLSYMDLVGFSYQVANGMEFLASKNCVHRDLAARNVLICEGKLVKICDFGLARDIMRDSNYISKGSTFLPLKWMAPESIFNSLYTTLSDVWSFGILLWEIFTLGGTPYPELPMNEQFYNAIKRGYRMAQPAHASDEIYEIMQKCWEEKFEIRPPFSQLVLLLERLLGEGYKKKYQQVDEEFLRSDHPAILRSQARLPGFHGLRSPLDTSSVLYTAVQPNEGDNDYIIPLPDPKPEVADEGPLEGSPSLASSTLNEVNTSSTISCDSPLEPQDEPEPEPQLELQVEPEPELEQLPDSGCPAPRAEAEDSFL
- protocol_notes: Kinase inhibition assay (33P transfer), PDGFRB
- Assay type: biochemical
- experimental_conditions: read-out: PDGFRB-1
pIC50: −log10 of the molar value.
outcome_measure: pIC50

>>> df
                               smiles_record        result
 0  CN(c1cccc(Cl)c1)c1ncnc(Nc2ccc(OC(F)(F)F)cc2)n1        < 4.94
 1  COC(=O)c1ccc(-c2cc(Nc3ncnc(Nc4cccc(CC(N)=O)c4)n3)[nH]n2)cc1  5.27 to 6.05
 2  c1ccc(CNc2nc3ccccc3n2-c2ncnc(Nc3cccc(Cn4ccnn4)c3)n2)cc1        > 6.07
 3      CCN(CC)CCNc1ncnc(N(C)c2cccc(Cl)c2)n1        < 4.87
 4  COc1cccc(CCNc2ncnc(Nc3ccc4c(cnn4Cc4ccccc4)c3)n2)c1OC        < 5.03
 5  CN(c1cccc(Cl)c1)c1ncnc(N[C@@H]2CCN(Cc3ccccc3)C2)n1        < 4.94
 6  CN(c1cccc(Cl)c1)c1ncnc(Nc2cccc(Cn3ccnn3)c2)n1        > 5.99
 7  CCN(c1cccc(Cl)c1)c1ncnc(Nc2cc(OC)cc(OC)c2)n1  5.21 to 5.98
 8  COc1ccc(Nc2ncnc(N(C)c3cccc(Cl)c3)n2)cc1OC  5.19 to 5.97
 9  COc1cc(Nc2ncnc(Nc3cc(-c4ccc(C(=O)NCCc5ccccc5)cc4)n[nH]3)n2)cc(OC)c1OC        < 5.10
10  COc1cc(Nc2ncnc(-c3cccnc3NCc3ccc(F)cc3)n2)cc(OC)c1OCCN1CCOCC1        > 6.15
11  CNS(=O)(=O)Cc1ccc(Nc2ncnc(Nc3cc(-c4ccco4)[nH]n3)n2)cc1  5.25 to 6.03
12  Cc1ccc2c(c1)CCCN2c1ncnc(Nc2ccc3c(c2)C(=O)OC3)n1  5.03 to 5.19
13         COCCCNc1ncnc(N2CCCc3cc(C)ccc32)n1        < 4.84
14  CN(c1cccc(Cl)c1)c1ncnc(Nc2cccc(Cc3nnn[nH]3)c2)n1  5.22 to 5.99
15  CCOc1cccc(Nc2ncnc(Nc3ccc(OC)c(OC)c3)n2)c1  5.02 to 5.18
16  O=C(O)c1cccc(Nc2ncnc(-n3c(NCc4ccccc4)nc4ccccc43)n2)c1        > 6.04

* * *

molecules and their reported IC50
- target_system: Itk (Homo sapiens, UniProt Q08881)
- Construct: Kinases are expressed as either kinase domains or full length constructs; made in house
- Sequence (Q08881 whole entry, species assumed, the tested form may be a part): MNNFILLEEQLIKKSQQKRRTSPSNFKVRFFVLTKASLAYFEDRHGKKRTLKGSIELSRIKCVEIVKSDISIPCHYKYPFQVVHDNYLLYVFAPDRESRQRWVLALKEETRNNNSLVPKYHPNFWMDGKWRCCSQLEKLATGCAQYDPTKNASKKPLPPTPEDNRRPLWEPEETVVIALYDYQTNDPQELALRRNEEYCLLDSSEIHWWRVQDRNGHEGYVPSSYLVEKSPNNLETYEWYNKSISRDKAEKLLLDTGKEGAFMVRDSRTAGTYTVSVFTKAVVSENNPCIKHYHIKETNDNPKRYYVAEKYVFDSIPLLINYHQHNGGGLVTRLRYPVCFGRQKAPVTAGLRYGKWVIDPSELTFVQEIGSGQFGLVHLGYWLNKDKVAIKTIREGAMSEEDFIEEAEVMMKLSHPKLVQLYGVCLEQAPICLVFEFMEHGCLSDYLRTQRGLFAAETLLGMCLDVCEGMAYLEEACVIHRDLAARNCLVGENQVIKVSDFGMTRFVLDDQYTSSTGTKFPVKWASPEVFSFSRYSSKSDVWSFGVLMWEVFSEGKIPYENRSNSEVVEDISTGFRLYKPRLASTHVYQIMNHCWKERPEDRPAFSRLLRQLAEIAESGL
- protocol_notes: Kinase inhibition assay (33P transfer), Itk
- Assay type: biochemical
- experimental_conditions: Table 3; read-out: Itk-1
outcome_measure: IC50

                              smiles_record  outcome_measure            result
0  COc1cc(Nc2ncnc(-n3ncc4ccccc43)n2)cc(OC)c1OC             IC50         > 11.9 µM
1  COc1cc(Nc2ncnc(-n3c(Nc4ccc5[nH]ccc5c4)nc4ccccc43)n2)cc(OC)c1OC             IC50  0.787 to 4.72 µM
2  COc1cc(Nc2ncnc(Nc3cc(-c4cccs4)n[nH]3)n2)cc(OC)c1OC             IC50   5.64 to 8.23 µM
3  COc1ccc(Nc2ncnc(Nc3ccc(OCc4ccccc4)cc3)n2)cc1OC             IC50         > 10.5 µM
4  COc1cc(Nc2ncnc(N3CCc4cc([N+](=O)[O-])ccc43)n2)cc(OC)c1OC             IC50         > 10.6 µM
5  COc1cc(Nc2ncnc(-n3c(NCC(N)=O)nc4ccccc43)n2)cc(OC)c1OC             IC50         > 9.99 µM
6  COc1cc(Nc2ncnc(-n3c(Nc4cccc(C(=O)O)c4)nc4ccccc43)n2)cc(OC)c1OC             IC50         > 8.76 µM
7  NC(=O)[C@H](CO)Nc1ncnc(-n2c(=O)[nH]c3ccccc32)n1             IC50         > 14.3 µM

* * *

- target_system: Lck (Homo sapiens)
- Construct: Kinases are expressed as either kinase domains or full length constructs; made in house
- Sequence (P06239 whole entry, species assumed, the tested form may be a part): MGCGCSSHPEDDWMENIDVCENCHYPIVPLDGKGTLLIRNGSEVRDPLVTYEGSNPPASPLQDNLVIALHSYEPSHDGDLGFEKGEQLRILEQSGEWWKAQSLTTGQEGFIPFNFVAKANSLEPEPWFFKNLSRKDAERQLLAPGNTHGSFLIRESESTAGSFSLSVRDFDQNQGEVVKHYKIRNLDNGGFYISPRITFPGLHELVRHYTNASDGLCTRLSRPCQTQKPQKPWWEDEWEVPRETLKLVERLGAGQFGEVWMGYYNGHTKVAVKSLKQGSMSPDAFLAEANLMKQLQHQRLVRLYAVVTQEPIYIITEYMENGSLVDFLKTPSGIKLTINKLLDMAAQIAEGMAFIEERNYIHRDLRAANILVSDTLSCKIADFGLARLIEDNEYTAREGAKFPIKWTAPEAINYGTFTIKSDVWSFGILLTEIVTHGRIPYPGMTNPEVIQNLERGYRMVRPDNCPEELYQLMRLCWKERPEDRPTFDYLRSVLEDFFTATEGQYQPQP
- protocol_notes: Kinase inhibition assay (33P transfer), Lck
- Format: biochemical
- experimental_conditions: read-out: Lck-1
Reported values of IC50 for individual entries
outcome_measure: IC50

                               smiles_record            result
 0  CN(c1cccc(Cl)c1)c1ncnc(Nc2ccc(S(C)(=O)=O)cc2)n1   1.03 to 6.16 µM
 1  COC(=O)Cc1cccc(Nc2ncnc(-n3c(NCc4ccccc4)nc4ccccc43)n2)c1  0.859 to 5.16 µM
 2  COc1cc(Nc2ncnc(-c3cccnc3NCCCN)n2)cc(OC)c1OC         > 10.9 µM
 3  Cc1ccc2c(c1)CCCN2c1ncnc(NCCc2c[nH]c3ccccc23)n1         > 11.7 µM
 4  N#Cc1ccc(Nc2ncnc(-n3c(=O)[nH]c4ccccc43)n2)cc1         > 13.7 µM
 5  COc1cc(Nc2ncnc(Nc3cc(Cl)ccc3C)n2)cc(OC)c1OC        < 0.995 µM
 6  CN(C)c1ccc(Nc2ncnc(-n3c(N)nc4ccccc43)n2)cc1   1.15 to 6.93 µM
 7  Nc1nc2ccccc2n1-c1ncnc(Nc2ccc(-c3ccccc3)cc2)n1   1.05 to 6.33 µM
 8  COc1cc(Nc2ncnc(-n3c(NCc4ccccc4Cl)nc4ccccc43)n2)cc(OC)c1OC  0.772 to 4.63 µM
 9  COc1cc(Nc2ncnc(Nc3cc(-c4cccc(C)c4)n[nH]3)n2)cc(OC)c1OC        < 0.923 µM
10  COc1cc(Nc2ncnc(Nc3[nH]ncc3-c3cccc(Cl)c3)n2)cc(OC)c1OC         > 9.91 µM
11  c1ccc(Cn2ncc3cc(Nc4ncnc(NCc5ccco5)n4)ccc32)cc1         > 11.3 µM
12  COc1cc(C)c(Nc2ncnc(Nc3cc(-c4ccccc4)n[nH]3)n2)cc1OC  0.991 to 5.95 µM
13  COc1cc(Nc2ncnc(NCCc3ccccc3)n2)cc(OC)c1OC   1.05 to 6.29 µM
14  Cc1cccc(Nc2ncnc(Nc3ccc4c(cnn4Cc4ccccc4)c3)n2)c1           > 11 µM
15  CCN(CC)c1ccc(Nc2ncnc(N3CCCc4cc(C)ccc43)n2)cc1         > 11.6 µM
16  COc1cc(Nc2ncnc(-n3c(NCc4nc5ccccc5[nH]4)nc4ccccc43)n2)cc(OC)c1OC    6.69 to 8.6 µM
17  COc1cc(Nc2ncnc(Nc3ccc4c(cnn4C)c3)n2)cc(OC)c1OC        < 0.982 µM

* * *

- target_system: Itk (Homo sapiens)
- Construct: Kinases are expressed as either kinase domains or full length constructs; made in house
- protocol_notes: Kinase inhibition assay (33P transfer), Itk
- Type: biochemical
- experimental_conditions: read-out: Itk-1
pIC50: −log10 of the molar value.
outcome_measure: pIC50

>>> df
                                    compound       target_system        result
 0  COc1ccc(Nc2nc3ccccc3n2-c2ncnc(Nc3cc(OC)c(OC)c(OC)c3)n2)c(C)c1  Itk (Homo sapiens)        < 5.06
 1  COc1cc(Nc2ncnc(Nc3ccc(NS(=O)(=O)c4ccc([N+](=O)[O-])cc4)cc3)n2)cc(OC)c1OC  Itk (Homo sapiens)  5.36 to 6.14
 2     Cc1ccc2c(c1)CCCN2c1ncnc(NCc2cccnc2)n1  Itk (Homo sapiens)  4.87 to 4.98
 3  COc1cc(Nc2ncnc(N(C)c3cccc(Cl)c3)n2)cc(OC)c1OC  Itk (Homo sapiens)        < 4.95
 4  Fc1ccc(Nc2ncnc(Nc3ccc4[nH]ncc4c3)n2)cc1Cl  Itk (Homo sapiens)  5.17 to 5.95
 5  CC(C)(C)c1cc(Nc2ncnc(Nc3cccc(CC(=O)O)c3)n2)[nH]n1  Itk (Homo sapiens)        < 4.91
 6  COc1cc(Nc2ncnc(-n3c(NCc4ccccn4)nc4ccccc43)n2)cc(OC)c1OC  Itk (Homo sapiens)        < 5.03
 7  COc1cc(Nc2ncnc(Nc3cc(C(F)(F)F)ccc3F)n2)cc(OC)c1OC  Itk (Homo sapiens)  4.99 to 5.10
 8  O=c1[nH]c2ccccc2n1-c1ncnc(Nc2ccc(Br)c(Cl)c2)n1  Itk (Homo sapiens)        < 4.97
 9  Cc1ccc2c(c1)CCCN2c1ncnc(Nc2cccc(-c3cnco3)c2)n1  Itk (Homo sapiens)  5.20 to 5.98
10  COc1cc(Nc2ncnc(-n3c(NCc4ccccc4F)nc4ccccc43)n2)cc(OC)c1OC  Itk (Homo sapiens)        < 5.05
11    Nc1nc2ccccc2n1-c1ncnc(Nc2ccc(Cl)cc2)n1  Itk (Homo sapiens)  5.15 to 5.93
12  CC(C)Nc1ncccc1-c1ncnc(Nc2ccc(C(N)=O)cc2)n1  Itk (Homo sapiens)  5.00 to 5.16
13  NC(=O)c1ccccc1Nc1ncnc(-n2c(N)nc3ccccc32)n1  Itk (Homo sapiens)        < 4.89
14  CN(c1cccc(Cl)c1)c1ncnc(N(C)c2cccc(Cl)c2)n1  Itk (Homo sapiens)        < 4.90
15        Clc1ncnc(Nc2cc(-c3ccccc3)n[nH]2)n1  Itk (Homo sapiens)        < 4.78
16  CCC(O)CNc1ncnc(Nc2ccc(OC)c(OC)c2)n1 (stereo not shown)  Itk (Homo sapiens)        < 4.85
17  C=CCNc1nc2ccccc2n1-c1ncnc(Nc2cc(OC)c(OC)c(OC)c2)n1  Itk (Homo sapiens)        < 4.98
18  COc1cc(Nc2ncnc(NCCc3ccccc3)n2)cc(OC)c1OC  Itk (Homo sapiens)        < 4.93
19  c1ccc(Cn2ncc3cc(Nc4ncnc(NCc5ccco5)n4)ccc32)cc1  Itk (Homo sapiens)        < 4.95
20  COc1cc(Nc2ncnc(Nc3cc(-c4cccc(C(F)(F)F)c4)n[nH]3)n2)cc(OC)c1OC  Itk (Homo sapiens)        < 5.03
21  COc1ccc(Nc2ncnc(-n3c(=O)[nH]c4ccccc43)n2)cn1  Itk (Homo sapiens)        < 4.87
22  COc1cc(Nc2ncnc(Nc3cc(-c4ccc(Cl)c(Cl)c4)n[nH]3)n2)cc(OC)c1OC  Itk (Homo sapiens)  5.14 to 5.31
23  COC(=O)c1ccc(-c2cc(Nc3ncnc(Nc4cccc(CC(N)=O)c4)n3)[nH]n2)cc1  Itk (Homo sapiens)  5.27 to 6.05
24    O=c1[nH]c2ccccc2n1-c1ncnc(Nc2ccccc2)n1  Itk (Homo sapiens)        < 4.83
25  COc1cc(Nc2ncnc(Nc3ccc4c(cnn4Cc4ccccc4)c3)n2)cc(OC)c1OCCN1CCOCC1  Itk (Homo sapiens)  5.22 to 5.39
26  COc1cc(Nc2ncnc(-n3c(NCc4ccc(C)cc4C)nc4ccccc43)n2)cc(OC)c1OC  Itk (Homo sapiens)        < 5.06
27    Cc1ccc2c(c1)CCCN2c1ncnc(Nc2cc[nH]n2)n1  Itk (Homo sapiens)        > 5.89
28  Nc1nc2ccccc2n1-c1ncnc(Nc2ccc(Cl)c(Cl)c2)n1  Itk (Homo sapiens)  5.19 to 5.97
29  c1ccc(Cn2ncc3cc(Nc4ncnc(Nc5ccc(N6CCCCC6)cc5)n4)ccc32)cc1  Itk (Homo sapiens)  5.02 to 5.13
30  COc1cc(Nc2ncnc(-n3c(NCc4ccccc4C)nc4ccccc43)n2)cc(OC)c1OC  Itk (Homo sapiens)        < 5.04
31  COc1cc(Nc2ncnc(-n3c(NCc4cccc(Cl)c4)nc4ccccc43)n2)cc(OC)c1OC  Itk (Homo sapiens)        < 5.06
32  CN(c1ccc(F)c(Cl)c1)c1ncnc(Nc2cccc(Br)c2)n1  Itk (Homo sapiens)        < 4.96
33  COc1cc(Nc2ncnc(-c3cccnc3Cl)n2)cc(OC)c1OCCN1CCOCC1  Itk (Homo sapiens)        < 5.02
